Every entry's value here was drawn from patent US8129389B2.

The following molecules are listed with their measured Ki values.
# Assayed system: human V1b receptors (Homo sapiens, UniProt P47901)
# Construct: expressed in transfected cells
# Sequence (P47901 whole entry): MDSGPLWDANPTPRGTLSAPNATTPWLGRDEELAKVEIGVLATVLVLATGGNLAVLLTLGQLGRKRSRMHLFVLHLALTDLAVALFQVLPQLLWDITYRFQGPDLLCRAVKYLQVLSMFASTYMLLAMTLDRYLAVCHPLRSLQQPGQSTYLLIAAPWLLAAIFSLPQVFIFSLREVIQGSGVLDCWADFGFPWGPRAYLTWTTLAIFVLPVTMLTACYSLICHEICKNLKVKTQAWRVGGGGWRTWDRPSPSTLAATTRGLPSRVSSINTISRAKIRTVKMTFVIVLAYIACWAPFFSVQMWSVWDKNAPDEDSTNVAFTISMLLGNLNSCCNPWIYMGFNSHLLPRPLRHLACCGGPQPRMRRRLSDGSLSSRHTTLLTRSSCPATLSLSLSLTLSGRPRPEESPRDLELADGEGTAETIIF
# Test protocol: Vasopressin V1b receptor binding assay
# Condition: Table 1; human vasopressin V1b receptor affinity; read-out: V1b Ki
# Experimental: Vasopressin V1b Receptor Binding Assay: These DMSO solutions were diluted 1:10 with assay buffer. The substance concentration was further diluted 1:10 in the assay mixture. The nonspecific binding was determined with 10^−6 M AVP. Determinations in triplicate were carried out. The affinities for the human vasopressin V1b receptor were measured, and affinity constants determined, in the above assay for the inventive examples. […]

Answered examples (2):
- Molecule: "CCOc1ccccc1C1(OC(=O)N2CCN(c3nccs3)CC2)C(=O)N(S(=O)(=O)c2ccccc2OC)c2ccc(C#N)cc21 (stereo not drawn) [Example 4]"
  Assayed system: "human V1b receptors (Homo sapiens, UniProt P47901)"
  Meas value: "< 10 nM"
- Molecule: "CCOc1ccccc1C1(NC(=O)N2CCN(c3ccncc3)CC2)C(=O)N(S(=O)(=O)c2ccc(C#N)cc2)c2ccc(C#N)cc21 (stereo not drawn) [Example 14]"
  Assayed system: "human V1b receptors (Homo sapiens, UniProt P47901)"
  Meas value: "< 10 nM"

Attention now turns to another entry.
# Ki of CCOc1ccccc1C1(NC(=O)N2CCN(c3ccc(C#N)cn3)CC2)C(=O)N(S(=O)(=O)c2ccc(OC)cc2OC)c2ccc(C#N)cc21 (stereo not drawn) [Example 33] = < 10 nM
